Value source: patent US20260216326A1

- System Name: T1, human TL1A (human, UniProt O95150 72-251, limits assumed)
- T1 construct: also called tumor necrosis factor-like cytokine 1A; TNFSF15
- T1 sequence (looked up): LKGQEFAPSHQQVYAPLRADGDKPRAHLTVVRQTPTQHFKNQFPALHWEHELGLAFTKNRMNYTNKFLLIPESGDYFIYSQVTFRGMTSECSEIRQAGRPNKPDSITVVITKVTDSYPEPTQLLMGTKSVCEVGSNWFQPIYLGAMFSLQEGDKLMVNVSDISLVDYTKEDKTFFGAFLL
- Experiment Notes: ELISA titration on plate-coated human TL1A, unpurified culture supernatant
Answer each item with its documented pKd.
pKd here: minus log base 10 of the concentration, concentration in moles per litre.

[ask] Query pKd for A211 (antibody, IgG1, V domains shown) VH: QVQLVQSGAEVKKPGASVKVSCKASGFDIQDTYMHWVKQRPGQGLEWIGRIDPASGHTKYDPKFQVRATITTDTSTSTAYLELSSLRSEDTAVYYCARSGGLPDVWGQGTTVTVSS VL: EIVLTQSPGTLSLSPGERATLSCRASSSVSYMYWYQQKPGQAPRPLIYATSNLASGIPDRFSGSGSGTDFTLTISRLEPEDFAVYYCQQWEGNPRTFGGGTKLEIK
[reply] 10.24

[ask] Input A190 (antibody, IgG1, V domains shown) VH: QVQLVQSGAEVKKPGASVKVSCKASGFDIQDTYMHWVKQRPGQGLEWIGRIDPASGHTKYDPKFQVRATITTDTSTSTVYLELSSLRSEDTAVYYCARSGGLPDVWGQGTTVTVSS VL: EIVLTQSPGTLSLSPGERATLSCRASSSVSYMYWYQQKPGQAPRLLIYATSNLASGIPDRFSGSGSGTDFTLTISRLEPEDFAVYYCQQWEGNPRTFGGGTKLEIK , output reported pKd.
[reply] 10.24
